Entry source: patent US20200017592A1

Biological target: Macaca fascicularis IL-36R extracellular domain expressed with a C-terminal myc-myc-hexahistidine tag (Macaca fascicularis)
Assay: SPR Biacore T200, mAb captured by anti-hFc, 37C, PBS-T pH 6.0
measure.name: t½ (min)

[[record]]
binder = "H4H14708P2 (antibody, human IgG4 S228P, kappa, V domains shown) VH: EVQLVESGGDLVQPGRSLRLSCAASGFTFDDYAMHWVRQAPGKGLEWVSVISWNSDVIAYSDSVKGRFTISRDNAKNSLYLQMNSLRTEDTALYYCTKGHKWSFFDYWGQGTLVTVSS VL: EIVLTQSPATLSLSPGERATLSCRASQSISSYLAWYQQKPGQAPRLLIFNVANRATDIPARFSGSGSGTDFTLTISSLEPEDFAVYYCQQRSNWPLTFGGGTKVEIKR"
measure_name = "t½"
measured_number = 4

